target: BRAF G466V (Homo sapiens, UniProt P15056, G466V); construct: expressed in transfected cells; assay: Cellular assay of target protein degradation, T-Rex 293 cells stably transfected with HA-BRAF G466V (HA immunofluorescence, high content imaging); format: cell-based; details: maximum degradation observed, T-Rex 293 HA-BRAF G466V
Sequence (P15056 whole entry G466V): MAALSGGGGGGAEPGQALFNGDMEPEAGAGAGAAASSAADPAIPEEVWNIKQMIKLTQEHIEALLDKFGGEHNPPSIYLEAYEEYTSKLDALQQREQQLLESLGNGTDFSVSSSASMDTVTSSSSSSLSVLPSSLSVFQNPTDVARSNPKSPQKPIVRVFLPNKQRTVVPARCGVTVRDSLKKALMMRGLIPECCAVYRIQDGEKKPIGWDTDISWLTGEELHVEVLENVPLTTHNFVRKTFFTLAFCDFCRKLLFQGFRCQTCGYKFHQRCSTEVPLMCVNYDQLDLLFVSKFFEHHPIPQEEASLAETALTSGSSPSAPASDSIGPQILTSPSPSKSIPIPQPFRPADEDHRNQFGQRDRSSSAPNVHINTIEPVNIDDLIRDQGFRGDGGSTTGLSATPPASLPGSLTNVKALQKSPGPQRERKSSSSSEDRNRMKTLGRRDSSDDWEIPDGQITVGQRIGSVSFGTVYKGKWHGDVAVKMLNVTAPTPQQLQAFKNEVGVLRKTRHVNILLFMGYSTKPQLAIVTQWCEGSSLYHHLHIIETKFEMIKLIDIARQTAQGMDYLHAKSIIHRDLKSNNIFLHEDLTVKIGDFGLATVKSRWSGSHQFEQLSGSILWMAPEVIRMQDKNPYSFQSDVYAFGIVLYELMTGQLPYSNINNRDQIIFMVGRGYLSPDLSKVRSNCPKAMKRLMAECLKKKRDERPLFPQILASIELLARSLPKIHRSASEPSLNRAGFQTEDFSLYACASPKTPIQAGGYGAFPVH
experimental-endpoint: Dmax

Ask: Item: "O=C1CC[C@H](N2Cc3cc(C4CCN(CC5CCN(c6ccc(-c7cnc8[nH]cc(C(=O)c9c(F)ccc(NS(=O)(=O)N%10CC[C@@H](F)C%10)c9F)c8c7)cc6)CC5)CC4)ccc3C2=O)C(=O)N1" Test system: BRAF G466V (Homo sapiens, UniProt P15056, G466V) Read-out: Dmax Value: ?
Result: > 70%

Ask: GET /values?readout=Dmax&system=BRAF G466V (Homo sapiens, UniProt P15056, G466V)&item= O=C1CCC(N2Cc3cc(C4CCN(CC5CCN(c6cnc(-c7cnc8[nH]cc(C(=O)c9c(F)ccc(NS(=O)(=O)N%10CC[C@@H](F)C%10)c9F)c8c7)nc6)CC5)CC4)ccc3C2=O)C(=O)N1 (some centres unmarked)
Result: > 70%

Ask: Quick check: Dmax on BRAF G466V (Homo sapiens, UniProt P15056, G466V), item "O=C1CC[C@H](NC(=O)N2CCCc3c(C4CCN(CC5CCN(c6ccc(-c7cnc8[nH]cc(C(=O)c9c(F)ccc(NS(=O)(=O)N%10CC[C@@H](F)C%10)c9F)c8c7)cc6)CC5)CC4)ccnc32)C(=O)N1" ?
Result: > 70%

Ask: Requested read-out Dmax, target or system BRAF G466V (Homo sapiens, UniProt P15056, G466V), entry COc1cc(N2CC(CN3CCN(c4ccc(-c5cnc6[nH]cc(C(=O)c7c(F)ccc(NS(=O)(=O)N8CC[C@@H](F)C8)c7F)c6c5)cc4)CC3)C2)cc2c1C(=O)N(C1CCC(=O)NC1=O)C2 (some centres unmarked)
Result: 35 to 70%

Ask: # get_value(readout= Dmax, system= BRAF G466V (Homo sapiens, UniProt P15056, G466V)) for COc1c(NS(=O)(=O)N2CC[C@@H](F)C2)ccc(F)c1C(=O)c1c[nH]c2ncc(-c3ccc(N4CCC(CN5CCC(c6ccc7c(c6)CN(C6CCC(=O)NC6=O)C7=O)CC5)CC4)cc3)cc12 (some centres unmarked)
Result: > 70%

###

Would you mind telling me the reported DC50 of each entry?
target: BRAF G466V (Homo sapiens, UniProt P15056, G466V); construct: expressed in transfected cells; assay: Cellular assay of target protein degradation, T-Rex 293 cells stably transfected with HA-BRAF G466V (HA immunofluorescence, high content imaging); type: cell-based; settings: half maximal degradation, T-Rex 293 HA-BRAF G466V; read-out: BRaf G466V DC50

Ask: Which DC50 is listed for O=C1CCC(N2Cc3cc(C4CCN(CCc5ccc(-c6cnc7[nH]cc(C(=O)c8c(F)ccc(NS(=O)(=O)N9CC[C@@H](F)C9)c8F)c7c6)cc5)[C@H](CO)C4)ccc3C2=O)C(=O)N1 (stereo partly drawn) [Compound 149] ?
Result: 1 to 10 nM

Ask: Give the measured DC50 of O=C1CCC(N2Cc3cc(N4CCN(CCCC5CCN(c6ccc(-c7cnc8[nH]cc(C(=O)c9c(F)ccc(NS(=O)(=O)N%10CC[C@@H](F)C%10)c9F)c8c7)cc6)CC5)CC4)ccc3C2=O)C(=O)N1 (stereo partly drawn) [Compound 135] .
Result: 1 to 10 nM

Ask: Give its DC50 value. Item: COc1cc(N2CC3(CN(CCc4ccc(-c5cnc6[nH]cc(C(=O)c7c(F)ccc(NS(=O)(=O)N8CC[C@@H](F)C8)c7F)c6c5)cc4)C3)C2)ccc1C(=O)N[C@H]1CCC(=O)NC1=O [Compound 361]
Result: 1 to 10 nM

Ask: Which DC50 is reported for this compound? O=C1CCC(N2Cc3cc(CCOCCN4CCN(c5ccc(-c6cnc7[nH]cc(C(=O)c8c(F)ccc(NS(=O)(=O)N9CC[C@@H](F)C9)c8F)c7c6)cc5)CC4)ccc3C2=O)C(=O)N1 (stereo partly drawn) [Compound 148]
Result: 1 to 10 nM

Ask: What value of measured DC50 is listed for O=C1CCC(N2Cc3cc(N4CCC(CN5CCC6(CCN(c7ccc(-c8cnc9[nH]cc(C(=O)c%10c(F)ccc(NS(=O)(=O)N%11CC[C@@H](F)C%11)c%10F)c9c8)cc7F)CC6)C5)CC4)ccc3C2=O)C(=O)N1 (stereo partly drawn) [Compound 104] ?
Result: 1 to 10 nM

Ask: Need DC50, item O=C1CC[C@H](N2Cc3cc(C4CN(CC5CC6(C5)CN(c5ccc(-c7cnc8[nH]cc(C(=O)c9c(F)ccc(NS(=O)(=O)N%10CC[C@@H](F)C%10)c9F)c8c7)cc5)C6)C4)ccc3C2=O)C(=O)N1 [Compound 99]
Result: 1 to 10 nM

Ask: Which DC50 value belongs to C[C@@H]1C[C@H](CN2CCC(c3ccc4c(c3)CN([C@H]3CCC(=O)NC3=O)C4=O)CC2)CCN1c1ccc(-c2cnc3[nH]cc(C(=O)c4c(F)ccc(NS(=O)(=O)N5CC[C@@H](F)C5)c4F)c3c2)cc1 [Compound 241] ?
Result: 1 to 10 nM

Ask: Record request: DC50 value, item O=C1CC[C@@H](N2Cc3cc(C[C@@H](O)CN4CC5(C4)CN(c4ccc(-c6cnc7[nH]cc(C(=O)c8c(F)ccc(NS(=O)(=O)N9CC[C@@H](F)C9)c8F)c7c6)cc4)C5)ccc3C2=O)C(=O)N1 [Compound 129]
Result: 1 to 10 nM

Ask: Entry under review: O=C1CC[C@H](NC(=O)c2ccc(N3CCC(CN4CC5(C4)CN(c4ccc(-c6cnc7[nH]cc(C(=O)c8c(F)ccc(NS(=O)(=O)N9CC[C@@H](F)C9)c8F)c7c6)cc4)C5)CC3)cn2)C(=O)N1 [Compound 353] . Reported DC50?
Result: 1 to 10 nM

Ask: # lookup: DC50 of O=C1CC[C@H](N2Cc3cc(C4CN(CC5CCN(c6ccc(-c7cnc8[nH]cc(C(=O)c9c(F)ccc(NS(=O)(=O)N%10CC[C@@H](F)C%10)c9F)c8c7)cc6)CC5)C4)ccc3C2=O)C(=O)N1 [Compound 83]
Result: < 1 nM

Ask: Endpoint output: DC50 of O=C1CCC(N2Cc3cc(C4CCN(C5CCN(c6ccc(-c7cnc8[nH]cc(C(=O)c9c(F)ccc(NS(=O)(=O)N%10CC[C@@H](F)C%10)c9F)c8c7)cc6)CC5)CC4)ccc3C2=O)C(=O)N1 (stereo partly drawn) [Compound 326] . Value?
Result: < 1 nM

Ask: Reported DC50, compound O=C1CCC(N2Cc3cc(N4CC(CN5CCC(Cc6ncc(-c7cnc8[nH]cc(C(=O)c9c(F)ccc(NS(=O)(=O)N%10CC[C@@H](F)C%10)c9F)c8c7)cn6)CC5)C4)ccc3C2=O)C(=O)N1 (stereo partly drawn) [Compound 194] : ____
Result: 1 to 10 nM

Ask: Could you tell me which DC50 is on file for O=C1CC[C@@H](N2Cc3cc(C[C@@H](O)CN4CCC(c5ccc(-c6cnc7[nH]cc(C(=O)c8c(F)ccc(NS(=O)(=O)N9CC[C@@H](F)C9)c8F)c7c6)cc5)CC4)ccc3C2=O)C(=O)N1 [Compound 108] ?
Result: 1 to 10 nM

Ask: Any idea what its DC50 is? The compound is CCCS(=O)(=O)Nc1ccc(F)c(C(=O)c2c[nH]c3ncc(-c4ccc(N5CCC(CN6CC7(C6)CN(c6ccc8c(c6)CN([C@@H]6CCC(=O)NC6=O)C8=O)C7)CC5)cc4)cc23)c1F [Compound 229]
Result: 1 to 10 nM

Ask: Look at this compound and give its reported DC50. COc1c(NS(=O)(=O)N2CC[C@@H](F)C2)ccc(F)c1C(=O)c1c[nH]c2ncc(-c3ccc(N4CCC(CN5CCC(c6ccc7c(c6)CN([C@H]6CCC(=O)NC6=O)C7=O)CC5)CC4)cc3)cc12 [Compound 207]
Result: < 1 nM

Ask: For the compound shown here, O=C1CC[C@H](N2Cc3cc(C4CCN(CC5CCN(c6ccc(-c7cnc8[nH]cc(C(=O)c9c(F)ccc(NS(=O)(=O)N%10CC(O)C%10)c9F)c8c7)cc6)CC5)CC4)ccc3C2=O)C(=O)N1 [Compound 279] , give the reported DC50.
Result: 10 to 30 nM

Ask: Name the recorded DC50 for O=C1CC[C@H](N2Cc3cc(C4CCN(CC5CCN(c6ccc(-c7cnc8[nH]cc(C(=O)c9c(F)ccc(NS(=O)(=O)N%10CC[C@@H](F)C%10)c9F)c8c7)cc6F)CC5)CC4)ccc3C2=O)C(=O)N1 [Compound 87] .
Result: < 1 nM

Ask: For the compound COc1cc(N2CCC(CN3CC4(C3)CN(c3ccc(-c5cnc6[nH]cc(C(=O)c7c(F)ccc(NS(=O)(=O)N8CCC(F)(F)C8)c7F)c6c5)cc3)C4)CC2)cc2c1C(=O)N(C1CCC(=O)NC1=O)C2 (stereo not drawn) [Compound 247] , what DC50 is on record?
Result: 1 to 10 nM
